Catalogue of compounds with associated IC50
Experimental system: EHMT1 (Homo sapiens, UniProt Q9H9B1)
Sequence (Q9H9B1 whole entry): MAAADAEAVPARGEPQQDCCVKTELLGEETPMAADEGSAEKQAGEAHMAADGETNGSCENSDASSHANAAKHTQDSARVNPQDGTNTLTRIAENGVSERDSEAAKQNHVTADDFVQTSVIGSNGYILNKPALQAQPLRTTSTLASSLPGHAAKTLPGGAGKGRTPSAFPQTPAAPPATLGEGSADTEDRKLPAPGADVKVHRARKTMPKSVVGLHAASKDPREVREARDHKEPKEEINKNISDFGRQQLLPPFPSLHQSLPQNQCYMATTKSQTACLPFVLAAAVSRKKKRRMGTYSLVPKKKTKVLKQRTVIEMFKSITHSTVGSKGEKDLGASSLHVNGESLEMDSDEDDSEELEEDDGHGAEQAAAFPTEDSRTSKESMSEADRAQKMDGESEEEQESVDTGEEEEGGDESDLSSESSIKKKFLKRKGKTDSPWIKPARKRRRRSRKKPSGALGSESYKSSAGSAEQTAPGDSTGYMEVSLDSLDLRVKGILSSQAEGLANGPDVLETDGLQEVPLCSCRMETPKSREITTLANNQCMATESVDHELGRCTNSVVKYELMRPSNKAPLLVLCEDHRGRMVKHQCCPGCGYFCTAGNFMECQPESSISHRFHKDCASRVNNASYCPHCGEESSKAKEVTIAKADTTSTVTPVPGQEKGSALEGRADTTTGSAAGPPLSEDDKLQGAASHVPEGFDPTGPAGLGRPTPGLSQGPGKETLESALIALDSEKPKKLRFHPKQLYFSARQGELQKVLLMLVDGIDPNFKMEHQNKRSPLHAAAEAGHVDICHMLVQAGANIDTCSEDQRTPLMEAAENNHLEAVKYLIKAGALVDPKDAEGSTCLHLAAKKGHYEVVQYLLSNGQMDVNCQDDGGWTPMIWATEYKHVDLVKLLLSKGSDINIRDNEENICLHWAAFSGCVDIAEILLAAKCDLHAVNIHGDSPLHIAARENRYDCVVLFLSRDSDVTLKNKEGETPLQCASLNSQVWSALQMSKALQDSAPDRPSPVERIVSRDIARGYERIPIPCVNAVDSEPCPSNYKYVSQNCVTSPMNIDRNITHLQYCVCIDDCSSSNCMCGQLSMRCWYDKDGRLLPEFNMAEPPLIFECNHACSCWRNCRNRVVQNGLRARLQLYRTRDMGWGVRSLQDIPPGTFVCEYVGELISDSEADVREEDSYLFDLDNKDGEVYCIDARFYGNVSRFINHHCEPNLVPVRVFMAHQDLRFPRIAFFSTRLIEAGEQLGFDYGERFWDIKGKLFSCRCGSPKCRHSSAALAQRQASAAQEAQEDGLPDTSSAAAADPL
Experiment notes: EHMT1 PEP (EHMT1 peptide enzyme assay)
Assay type: biochemical
Experimental conditions: peptide substrate enzyme assay

# count of solved cases: 4
{"Smiles": "CNc1cc(C)nc(Nc2ccc(OC)c(-n3ccc(CNC(C)=O)n3)c2)n1", "Observed": "> 10 µM"}
{"Smiles": "CNc1cc(C)nc(Nc2cnc(OC)c(-n3cc4c(n3)CCNC4)c2)n1", "Observed": "0.1 to 1 µM"}
{"Smiles": "CNC1=Nc2cc(-c3cnc4cc[nH]c4c3)c(OC)cc2C12CCC2", "Observed": "< 0.1 µM"}
{"Smiles": "CNc1cc(C)nc(Nc2ccc(OC)c(-c3[nH]c4cnccc4c3F)c2)n1", "Observed": "< 0.1 µM"}

Now for a further compound.
## Task Form: Entry = `CNCc1cnn(-c2cc(Nc3nc(C)cc(NC)n3)ccc2C#N)c1` | System = EHMT1 (Homo sapiens, UniProt Q9H9B1) | IC50 = ____
## Result < 0.1 µM

----------
Catalogue of compounds with associated IC50
Experimental system: recombinant purified human EHMT2 913-1193 (Homo sapiens)
Construct: Recombinant purified human EHMT2 913-1193 (55 μM) synthesized by Viva was used for all experiments; purchased Viva
Sequence (Q96KQ7 913-1193): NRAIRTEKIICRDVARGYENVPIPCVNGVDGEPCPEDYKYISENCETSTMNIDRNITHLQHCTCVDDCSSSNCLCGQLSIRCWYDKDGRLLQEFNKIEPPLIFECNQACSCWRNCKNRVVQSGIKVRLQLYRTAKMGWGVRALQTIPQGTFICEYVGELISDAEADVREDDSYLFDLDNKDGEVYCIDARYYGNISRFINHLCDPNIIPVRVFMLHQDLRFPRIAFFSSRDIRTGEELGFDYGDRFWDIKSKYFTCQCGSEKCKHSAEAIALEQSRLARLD
Experiment notes: EHMT2 enzyme assay on histone peptide substrate (3H-SAM Flashplate)
Format: biochemical
Experimental conditions: read-out: EHMT2 PEP (IC50 μM)

# count of solved cases: 3
{"Smiles": "CNCc1cnn(-c2cc3nc(NC)n(C)c3cc2OC)c1", "IC50": "0.1 to 1 µM"}
{"Smiles": "CCN1CCc2nn(-c3cc(Nc4nc(C)cc(NC)n4)ccc3OC)cc2C1", "IC50": "0.1 to 1 µM"}
{"Smiles": "CNc1cc(C)nc(Nc2cnc(OC)c(-n3cnc(CN(C)C)n3)c2)n1", "IC50": "> 10 µM"}

## Task Would you kindly share the measured IC50 for `CNc1cc(C)nc(Nc2ccc(OC)c(-n3cc4c(OC)nccc4n3)c2)n1` ?
## Result > 10 µM

## Task Would you kindly share the measured IC50 for `CNc1cc(C)nc(Nc2ccc(OC)c(-c3cc4[nH]ccc4cn3)c2OC)n1` ?
## Result > 10 µM

## Task Would you kindly share the measured IC50 for `CNc1cc(C)nc(Nc2cnc(OC)c(-n3cc4c(n3)CCNC4)c2)n1` ?
## Result 0.1 to 1 µM

## Task Would you kindly share the measured IC50 for `CNC(=O)CCNc1cc(C)nc(Nc2ccc(OC)c(-n3cc4c(n3)CCN(C)C4)c2)n1` ?
## Result 0.1 to 1 µM

----------
Experimental system: recombinant purified human EHMT2 913-1193 (Homo sapiens)
Construct: Recombinant purified human EHMT2 913-1193 (55 μM) synthesized by Viva was used for all experiments; purchased Viva
Experiment notes: EHMT2 enzyme assay on histone peptide substrate (3H-SAM Flashplate)
Assay type: biochemical
Experimental conditions: read-out: EHMT2 PEP (IC50 μM)
Experimental endpoint: IC50

# count of solved cases: 5
{"Molecule": "CNc1cc(C)nc(Nc2ccc(OC)c(-n3cc(C)c(CN(C)C)n3)c2)n1 [Compound 102]", "Experimental system": "recombinant purified human EHMT2 913-1193 (Homo sapiens)", "IC50": "1 to 10 µM"}
{"Molecule": "CNc1cc(C)nc(Nc2ccc(C)c(-n3cc4cnccc4n3)c2)n1 [Compound 282]", "Experimental system": "recombinant purified human EHMT2 913-1193 (Homo sapiens)", "IC50": "< 0.1 µM"}
{"Molecule": "CNc1cc(C)nc(Nc2ccc(C)c(C(=O)Nc3cn(C)nn3)c2)n1 [Compound 299]", "Experimental system": "recombinant purified human EHMT2 913-1193 (Homo sapiens)", "IC50": "> 10 µM"}
{"Molecule": "COc1cc(NC2CCNCC2)ccc1-c1[nH]c2cnccc2c1C [Compound 310]", "Experimental system": "recombinant purified human EHMT2 913-1193 (Homo sapiens)", "IC50": "1 to 10 µM"}
{"Molecule": "CNCc1ccnc(-c2cc(Nc3nc(C)cc(NC)n3)ccc2OC)c1 [Compound 313]", "Experimental system": "recombinant purified human EHMT2 913-1193 (Homo sapiens)", "IC50": "0.1 to 1 µM"}

## Task Would you kindly share the measured IC50 for CNc1cc(C)nc(Nc2ccc(OC)c(-c3[nH]c4cnccc4c3C)c2)n1 [Compound 200] ?
## Result < 0.1 µM

## Task Would you kindly share the measured IC50 for CNc1cc(C)nc(Nc2ccc(OC)c(-c3nc4c([nH]3)CN(C)CC4)c2)n1 [Compound 79] ?
## Result 1 to 10 µM

## Task Would you kindly share the measured IC50 for CNc1cc(C)nc(Nc2ccc(OC)c(-n3ccc(CN4CCCC4)n3)c2)n1 [Compound 4, trifluoroacetic acid] ?
## Result 1 to 10 µM

## Task Would you kindly share the measured IC50 for CNc1ccnc(Nc2ccc(OC)c(-n3cc(C4CC4)nn3)c2)n1 [Compound 176] ?
## Result 1 to 10 µM
